Biological target: human NaV1.8 (Homo sapiens, UniProt Q9Y5Y9)
Sequence (Q9Y5Y9 whole entry): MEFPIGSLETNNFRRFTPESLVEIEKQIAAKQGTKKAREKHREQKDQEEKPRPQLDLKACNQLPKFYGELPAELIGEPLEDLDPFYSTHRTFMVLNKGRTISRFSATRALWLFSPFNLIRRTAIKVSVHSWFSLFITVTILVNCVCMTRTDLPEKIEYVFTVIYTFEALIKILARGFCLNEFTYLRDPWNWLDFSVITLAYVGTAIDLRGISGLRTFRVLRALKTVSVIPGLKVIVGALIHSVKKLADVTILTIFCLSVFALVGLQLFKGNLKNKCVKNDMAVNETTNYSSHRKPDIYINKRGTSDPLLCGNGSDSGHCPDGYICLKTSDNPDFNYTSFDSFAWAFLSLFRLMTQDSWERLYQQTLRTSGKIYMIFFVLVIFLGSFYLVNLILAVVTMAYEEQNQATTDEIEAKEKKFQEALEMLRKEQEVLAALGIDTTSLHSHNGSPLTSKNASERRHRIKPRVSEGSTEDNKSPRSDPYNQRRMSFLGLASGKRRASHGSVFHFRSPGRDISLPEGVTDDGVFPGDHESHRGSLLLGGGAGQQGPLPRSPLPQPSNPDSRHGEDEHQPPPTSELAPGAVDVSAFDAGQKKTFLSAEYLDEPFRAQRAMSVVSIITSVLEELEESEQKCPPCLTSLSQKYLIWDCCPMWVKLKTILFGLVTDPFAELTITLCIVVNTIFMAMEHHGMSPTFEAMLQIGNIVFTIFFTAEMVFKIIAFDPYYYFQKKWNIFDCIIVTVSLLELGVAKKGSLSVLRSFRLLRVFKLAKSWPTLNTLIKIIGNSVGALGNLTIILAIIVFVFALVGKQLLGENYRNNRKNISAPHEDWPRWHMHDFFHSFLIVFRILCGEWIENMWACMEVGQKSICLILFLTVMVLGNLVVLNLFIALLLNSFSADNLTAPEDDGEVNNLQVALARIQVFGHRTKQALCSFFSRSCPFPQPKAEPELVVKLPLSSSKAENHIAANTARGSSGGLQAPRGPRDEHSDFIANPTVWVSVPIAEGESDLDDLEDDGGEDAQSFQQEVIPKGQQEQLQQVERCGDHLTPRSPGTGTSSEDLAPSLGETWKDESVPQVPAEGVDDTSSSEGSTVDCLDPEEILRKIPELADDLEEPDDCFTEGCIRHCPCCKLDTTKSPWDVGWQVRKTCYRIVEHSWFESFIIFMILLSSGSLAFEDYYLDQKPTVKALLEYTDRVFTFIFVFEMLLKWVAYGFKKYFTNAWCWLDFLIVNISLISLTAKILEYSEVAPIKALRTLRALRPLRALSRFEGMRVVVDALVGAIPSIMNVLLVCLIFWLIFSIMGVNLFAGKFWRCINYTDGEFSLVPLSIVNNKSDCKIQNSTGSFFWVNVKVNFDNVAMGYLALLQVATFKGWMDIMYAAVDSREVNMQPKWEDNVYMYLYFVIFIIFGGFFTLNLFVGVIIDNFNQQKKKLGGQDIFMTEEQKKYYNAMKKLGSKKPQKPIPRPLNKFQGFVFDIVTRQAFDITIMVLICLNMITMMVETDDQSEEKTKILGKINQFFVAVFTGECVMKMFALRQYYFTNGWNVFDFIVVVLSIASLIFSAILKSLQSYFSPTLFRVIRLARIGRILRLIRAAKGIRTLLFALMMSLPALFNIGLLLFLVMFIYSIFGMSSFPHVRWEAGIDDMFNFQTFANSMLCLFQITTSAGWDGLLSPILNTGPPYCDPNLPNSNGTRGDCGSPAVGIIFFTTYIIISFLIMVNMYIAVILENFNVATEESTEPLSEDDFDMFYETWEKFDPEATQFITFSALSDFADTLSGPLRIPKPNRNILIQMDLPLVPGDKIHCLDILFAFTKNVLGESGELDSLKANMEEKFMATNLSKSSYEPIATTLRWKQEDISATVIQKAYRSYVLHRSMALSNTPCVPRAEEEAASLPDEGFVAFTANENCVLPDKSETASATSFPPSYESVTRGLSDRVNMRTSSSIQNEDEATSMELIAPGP
Assay: Nav1.8 Qube® Assay (automated 384-well patch-clamp, inhibition of sodium current)
Conditions: human NaV1.8 channels stably expressed in HEK 293 cells, room temperature
assayEndpoint: IC50 (nM)

C[C@@H]1C(=O)NCCN1C(=O)NC(c1ccc(C(F)(F)F)nc1)C1CC(C)(C)C1 (single isomer, unassigned) [Example 33A]    135

a: O=C1CN(C(=O)NC(c2ccc(F)c(Cl)c2)C2CCN(CC(F)(F)F)CC2)CCN1 (single isomer, unassigned) [Example 17B]
b: O=C1CN(C(=O)NC(c2ccc(F)c(Cl)c2)C23CCC(C(F)(F)F)(CC2)CC3)CCN1 (single isomer, unassigned) [Example 12B]
I'm curious, which of these has a smaller IC50 number: a or b ? Label of pick, please. b
